assayProtocol: In vivo pharmacokinetic study of DCCTX and Gom A in rats
assayConditions: Sprague-Dawley, rat, plasma, iv, 300 mg/kg, Group 4: CTX 300 mg/kg i.v. 24 h after Gom A 20.8 mg/kg i.g.
propertyName: Cmax (µg/mL)
Express the result in µg/mL but write the number alone.

Query: Cmax; subject: O=P1(NCCCl)NCCCO1 (stereo not shown) [DCCTX, 2-dechloroethylcyclophosphamide]
16.2

---

assayProtocol: In vivo pharmacokinetic study of DCCTX and Gom A in rats
assayConditions: Sprague-Dawley, rat, plasma, iv, 300 mg/kg, Group 3: CTX 300 mg/kg i.v. 6 h after Gom A 20.8 mg/kg i.g.
propertyName: Tmax (h)
Express the result in h but write the number alone.

Query: Tmax; subject: O=P1(NCCCl)NCCCO1 (stereo not shown) [DCCTX, 2-dechloroethylcyclophosphamide]
3.7

---

assayProtocol: In vivo pharmacokinetic study of DCCTX and Gom A in rats
assayConditions: Sprague-Dawley, rat, plasma, iv, 300 mg/kg, Group 1: CTX 300 mg/kg i.v. alone (saline 0.5 h before), read-out: AUC0–8h
propertyName: AUC(0-t)

Query: AUC(0-t); subject: O=P1(NCCCl)NCCCO1 (stereo not shown) [DCCTX, 2-dechloroethylcyclophosphamide]
32500 ng·h/mL

---

assayProtocol: In vivo pharmacokinetic study of DCCTX and Gom A in rats
assayConditions: Sprague-Dawley, rat, plasma, iv, 300 mg/kg, Group 4: CTX 300 mg/kg i.v. 24 h after Gom A 20.8 mg/kg i.g.
propertyName: half-life (h)
Express the result in h but write the number alone.

Query: half-life; subject: O=P1(NCCCl)NCCCO1 (stereo not shown) [DCCTX, 2-dechloroethylcyclophosphamide]
2

---

assayProtocol: In vivo pharmacokinetic study of DCCTX and Gom A in rats
assayConditions: Sprague-Dawley, rat, plasma, iv, 300 mg/kg, Group 1: CTX 300 mg/kg i.v. alone (saline 0.5 h before)
propertyName: Tmax (h)
Express the result in h but write the number alone.

Query: Tmax; subject: O=P1(NCCCl)NCCCO1 (stereo not shown) [DCCTX, 2-dechloroethylcyclophosphamide]
2

---

assayProtocol: In vivo pharmacokinetic study of DCCTX and Gom A in rats
assayConditions: Sprague-Dawley, rat, plasma, iv, 300 mg/kg, Group 2: CTX 300 mg/kg i.v. 0.5 h after Gom A 20.8 mg/kg i.g.
propertyName: half-life (min)
Express the result in min but write the number alone.

Query: half-life; subject: O=P1(NCCCl)NCCCO1 (stereo not shown) [DCCTX, 2-dechloroethylcyclophosphamide]
186

---

assayProtocol: In vivo pharmacokinetic study of DCCTX and Gom A in rats
assayConditions: Sprague-Dawley, rat, plasma, iv, 300 mg/kg, Group 2: CTX 300 mg/kg i.v. 0.5 h after Gom A 20.8 mg/kg i.g.
Protocol: Rats were randomly divided into five groups (groups 1−5, n = 6), respectively. […] UHPLC-MS/MS method (I): 6OH-Tes concentrations were analyzed according to the previous reports with slight modifications (Supplementary Figure S3). […] UHPLC-MS method (II): DCCTX concentrations were determined using our previously developed UHPLC-MS/MS method (Supplementary Figure S4). […] UHPLC-MS/MS method (III): Gom A concentrations were determined using slightly modified LC/MS method which developed by our laboratory. […]
propertyName: Cmax (ng/mL)
Express the result in ng/mL but write the number alone.

Query: Cmax; subject: O=P1(NCCCl)NCCCO1 (stereo not shown) [DCCTX, 2-dechloroethylcyclophosphamide]
1900

---

assayProtocol: In vivo pharmacokinetic study of DCCTX and Gom A in rats
assayConditions: Sprague-Dawley, rat, plasma, iv, 300 mg/kg, Group 5: CTX 300 mg/kg i.v. 72 h after Gom A 20.8 mg/kg i.g.
propertyName: Tmax (h)
Express the result in h but write the number alone.

Query: Tmax; subject: O=P1(NCCCl)NCCCO1 (stereo not shown) [DCCTX, 2-dechloroethylcyclophosphamide]
3.3

---

assayProtocol: In vivo pharmacokinetic study of DCCTX and Gom A in rats
assayConditions: Sprague-Dawley, rat, plasma, iv, 300 mg/kg, Group 3: CTX 300 mg/kg i.v. 6 h after Gom A 20.8 mg/kg i.g.
propertyName: Cmax (ng/mL)
Express the result in ng/mL but write the number alone.

Query: Cmax; subject: O=P1(NCCCl)NCCCO1 (stereo not shown) [DCCTX, 2-dechloroethylcyclophosphamide]
2600

---

assayProtocol: In vivo pharmacokinetic study of DCCTX and Gom A in rats
assayConditions: Sprague-Dawley, rat, plasma, iv, 300 mg/kg, Group 3: CTX 300 mg/kg i.v. 6 h after Gom A 20.8 mg/kg i.g.
Protocol: Rats were randomly divided into five groups (groups 1−5, n = 6), respectively. […] UHPLC-MS/MS method (I): 6OH-Tes concentrations were analyzed according to the previous reports with slight modifications (Supplementary Figure S3). […] UHPLC-MS method (II): DCCTX concentrations were determined using our previously developed UHPLC-MS/MS method (Supplementary Figure S4). […] UHPLC-MS/MS method (III): Gom A concentrations were determined using slightly modified LC/MS method which developed by our laboratory. […]
propertyName: half-life (h)
Express the result in h but write the number alone.

Query: half-life; subject: O=P1(NCCCl)NCCCO1 (stereo not shown) [DCCTX, 2-dechloroethylcyclophosphamide]
3.2

---

assayProtocol: In vivo pharmacokinetic study of DCCTX and Gom A in rats
assayConditions: Sprague-Dawley, rat, plasma, iv, 300 mg/kg, Group 2: CTX 300 mg/kg i.v. 0.5 h after Gom A 20.8 mg/kg i.g.
propertyName: Tmax (h)
Express the result in h but write the number alone.

Query: Tmax; subject: O=P1(NCCCl)NCCCO1 (stereo not shown) [DCCTX, 2-dechloroethylcyclophosphamide]
2.9

---

assayProtocol: In vivo pharmacokinetic study of DCCTX and Gom A in rats
assayConditions: Sprague-Dawley, rat, plasma, iv, 300 mg/kg, Group 5: CTX 300 mg/kg i.v. 72 h after Gom A 20.8 mg/kg i.g.
Protocol: Rats were randomly divided into five groups (groups 1−5, n = 6), respectively. […] UHPLC-MS/MS method (I): 6OH-Tes concentrations were analyzed according to the previous reports with slight modifications (Supplementary Figure S3). […] UHPLC-MS method (II): DCCTX concentrations were determined using our previously developed UHPLC-MS/MS method (Supplementary Figure S4). […] UHPLC-MS/MS method (III): Gom A concentrations were determined using slightly modified LC/MS method which developed by our laboratory. […]
propertyName: Cmax
Number first, unit second: that is the form wanted.

Query: Cmax; subject: O=P1(NCCCl)NCCCO1 (stereo not shown) [DCCTX, 2-dechloroethylcyclophosphamide]
20000 ng/mL

---

assayProtocol: In vivo pharmacokinetic study of DCCTX and Gom A in rats
assayConditions: Sprague-Dawley, rat, plasma, iv, 300 mg/kg, Group 5: CTX 300 mg/kg i.v. 72 h after Gom A 20.8 mg/kg i.g.
propertyName: half-life
Number first, unit second: that is the form wanted.

Query: half-life; subject: O=P1(NCCCl)NCCCO1 (stereo not shown) [DCCTX, 2-dechloroethylcyclophosphamide]
3.8 h

---

assayProtocol: In vivo pharmacokinetic study of DCCTX and Gom A in rats
assayConditions: Sprague-Dawley, rat, plasma, iv, 300 mg/kg, Group 1: CTX 300 mg/kg i.v. alone (saline 0.5 h before), read-out: MRT0–8h
propertyName: MRT last (h)
Express the result in h but write the number alone.

Query: MRT last; subject: O=P1(NCCCl)NCCCO1 (stereo not shown) [DCCTX, 2-dechloroethylcyclophosphamide]
3.3

---

assayProtocol: In vivo pharmacokinetic study of DCCTX and Gom A in rats
assayConditions: Sprague-Dawley, rat, plasma, iv, 300 mg/kg, Group 5: CTX 300 mg/kg i.v. 72 h after Gom A 20.8 mg/kg i.g., read-out: MRT0–8h
propertyName: MRT last (h)
Express the result in h but write the number alone.

Query: MRT last; subject: O=P1(NCCCl)NCCCO1 (stereo not shown) [DCCTX, 2-dechloroethylcyclophosphamide]
3.7

---

assayProtocol: In vivo pharmacokinetic study of DCCTX and Gom A in rats
assayConditions: Sprague-Dawley, rat, plasma, iv, 300 mg/kg, Group 4: CTX 300 mg/kg i.v. 24 h after Gom A 20.8 mg/kg i.g., read-out: AUC0–8h
propertyName: AUC(0-t) (ng·h/mL)
Express the result in ng·h/mL but write the number alone.

Query: AUC(0-t); subject: O=P1(NCCCl)NCCCO1 (stereo not shown) [DCCTX, 2-dechloroethylcyclophosphamide]
65900

---

assayProtocol: In vivo pharmacokinetic study of DCCTX and Gom A in rats
assayConditions: Sprague-Dawley, rat, plasma, iv, 300 mg/kg, Group 3: CTX 300 mg/kg i.v. 6 h after Gom A 20.8 mg/kg i.g., read-out: AUC0–8h
propertyName: AUC(0-t) (ng·h/mL)
Express the result in ng·h/mL but write the number alone.

Query: AUC(0-t); subject: O=P1(NCCCl)NCCCO1 (stereo not shown) [DCCTX, 2-dechloroethylcyclophosphamide]
11800
